# System: MV4-11
# assay.method.text: CellTiter-Blue cell viability, MV4-11
# Assay type: cell-based
# condition.context: Homo sapiens, MV4-11; AML cell line, 72 hours
metric.name: IC50 (nM)

[
  {
    "compound": "O=S(=O)(c1c(F)c(F)c(F)c(F)c1F)N(Cc1ccoc1)C1CC1",
    "number": 3550
  },
  {
    "compound": "CCOC(=O)C1(N(Cc2ccc(F)cn2)S(=O)(=O)c2c(F)c(F)c(F)c(F)c2F)CC1",
    "number": 2800
  },
  {
    "compound": "O=S(=O)(c1c(F)c(F)c(F)c(F)c1F)N(Cc1ccccc1F)C1CCC1",
    "number": 2270
  }
]

(a) O=S(=O)(c1c(F)c(F)c(F)c(F)c1F)N(Cc1ccc(F)cc1F)C1CC1
(b) O=S(=O)(c1c(F)c(F)c(F)c(F)c1F)N(Cc1ccc(F)cc1)CC1CC1
Q: Would you let me know which has the greater IC50 value, a or b ? # reply format: chosen label
Result: a
(a: 1700 nM, b: 850 nM)

(a) COc1cc(CN(C2CC2)S(=O)(=O)c2c(F)c(F)c(F)c(F)c2F)cc(OC)c1O
(b) O=S(=O)(c1c(F)c(F)c(F)c(F)c1F)N(Cc1ccc(F)cc1)C1CCCC1
(c) O=S(=O)(c1c(F)c(F)c(F)c(F)c1F)N(Cc1ccccc1)C1CC1
Q: Put these in order: smallest IC50 first, largest last. Answer by listing the labels in the requested order.
Result: b, c, a

* * *

Listed here: items and their measured IC50.
# Tested on: healthy human lung cells (MRC9)
# assay.method.text: CellTiter-Blue cell viability, MRC9
# Assay type: cell-based
# condition.context: non-cancerous, 72 hours
Answer format: numeric, µM implied, no suffix.

Consider the following illustrative entries.
[
  {
    "compound": "O=S(=O)(c1c(F)c(F)c(F)c(F)c1F)N(Cc1ccc(F)cc1)CC1CC1 [Compound I-2]",
    "tested.system": "healthy human lung cells (MRC9)",
    "metric.name": "IC50",
    "number": 7.7
  },
  {
    "compound": "O=S(=O)(c1c(F)c(F)c(F)c(F)c1F)N(Cc1ccc(F)nc1)C1CC1 [Compound I-12]",
    "tested.system": "healthy human lung cells (MRC9)",
    "metric.name": "IC50",
    "number": 18
  },
  {
    "compound": "COc1ccc(CN(C2CC2)S(=O)(=O)c2c(F)c(F)c(F)c(F)c2F)cc1F [Compound I-17]",
    "tested.system": "healthy human lung cells (MRC9)",
    "metric.name": "IC50",
    "number": 16.2
  }
]

Q: Look up and report measured IC50 for this entry: O=S(=O)(c1c(F)c(F)c(F)c(F)c1F)N(Cc1ncc(F)cc1F)C1CC1 [Compound I-37]
Result: 22

Q: Recall and state the measured IC50 for O=S(=O)(c1c(F)c(F)c(F)c(F)c1F)N(Cc1ccccc1)C1CC1 [Compound I-6] .
Result: 17.5

Q: Query IC50 for O=S(=O)(c1c(F)c(F)c(F)c(F)c1F)N(Cc1cccc(N2CCOCC2)c1)C1CC1 [Compound I-34]
Result: 14.1

Q: Read off the recorded IC50 for O=S(=O)(NC1CC1)c1c(F)c(F)c(F)c(F)c1F [Comparative Example 6, reference compound]
Result: 19.1

Q: Supply reported IC50 belonging to this compound: O=S(=O)(c1c(F)c(F)c(F)c(F)c1F)N(Cc1ccc(F)cc1)C1CC1 [Compound I-1]
Result: 25

Q: Indicate its recorded IC50; the compound in question is CC(C)N(Cc1ccc(F)cc1F)S(=O)(=O)c1c(F)c(F)c(F)c(F)c1F [Compound I-49]
Result: 16.7

Q: Read off the recorded IC50 for Nc1ccc(-c2ccccc2CN(C2CC2)S(=O)(=O)c2c(F)c(F)c(F)c(F)c2F)cc1 [Compound I-38]
Result: 13.1

Q: Write down IC50 measured for item COc1cc(CN(C2CC2)S(=O)(=O)c2c(F)c(F)c(F)c(F)c2F)cc(OC)c1O [Compound I-29]
Result: 9.7

Q: Using known records, supply IC50 for O=S(=O)(c1c(F)c(F)c(F)c(F)c1F)N(Cc1ccccc1F)C1CCC1 [Compound I-45]
Result: 14.2

Q: Tell me measured IC50 for CC(=O)N(Cc1ccc(F)cc1)S(=O)(=O)c1c(F)c(F)c(F)c(F)c1F [Compound I-4] please.
Result: 25

Q: Supply reported IC50 belonging to this compound: O=S(=O)(NCc1ccc(F)cc1)c1c(F)c(F)c(F)c(F)c1F [Comparative Example 4, reference compound]
Result: 16.8

Q: Give the measured IC50 for O=S(=O)(c1c(F)c(F)c(F)c(F)c1F)N(CC#Cc1ccccc1)C1CC1 [Compound I-31]
Result: 15.5
